SUBJECT OF TEST: Solute carrier family 2, facilitated glucose transporter member 1 (Homo sapiens)
ASSAY PROCEDURE: ST_JUDE_LEISH: Cytotoxicity at 2uM final concentration against transgenic Leishmania Mexicana promastigotes LmGLUT1 that are glucose transport deficient and complemented with the human glucose transporter GLUT1. Activity is measured by DNA content using SYBR green in vitro
Format: functional
MEASUREMENT NAME: inhibition (%)
Give the quantity in %, number only.

{"COMPOUND": "Cc1cccc2nc(-c3ccc(-c4cccc(CN5CCCC5CN)c4)cc3)[nH]c12 (centres undefined)", "UNIT OF MEASUREMENT": "%", "inhibition": 1.08}
{"COMPOUND": "O=C(Nc1ccc(Cl)c(C(F)(F)F)c1)Nc1ccc(Cl)c(C(F)(F)F)c1", "UNIT OF MEASUREMENT": "%", "inhibition": 0.91}
{"COMPOUND": "COc1cc(CNC[C@@H](O)[C@H](Cc2ccccc2)NC(=O)c2cc(OC(C)C)cc(N3CCCCS3(=O)=O)c2)cc(OC)c1", "UNIT OF MEASUREMENT": "%", "inhibition": 2.15}

Could you now consider this next compound?
Prompt line: Can you look up the measured inhibition of `Cc1c(C(=O)N(C)C)sc2c1c(=O)n(Cc1ccccc1)c(=O)n2CC(=O)Nc1ccccc1F` for me?
Response line: 2.21
